# system tested: Mitogen-activated protein kinase kinase kinase 5 (Homo sapiens) (UniProt Q99683)
# Sequence (Q99683 whole entry, looked up): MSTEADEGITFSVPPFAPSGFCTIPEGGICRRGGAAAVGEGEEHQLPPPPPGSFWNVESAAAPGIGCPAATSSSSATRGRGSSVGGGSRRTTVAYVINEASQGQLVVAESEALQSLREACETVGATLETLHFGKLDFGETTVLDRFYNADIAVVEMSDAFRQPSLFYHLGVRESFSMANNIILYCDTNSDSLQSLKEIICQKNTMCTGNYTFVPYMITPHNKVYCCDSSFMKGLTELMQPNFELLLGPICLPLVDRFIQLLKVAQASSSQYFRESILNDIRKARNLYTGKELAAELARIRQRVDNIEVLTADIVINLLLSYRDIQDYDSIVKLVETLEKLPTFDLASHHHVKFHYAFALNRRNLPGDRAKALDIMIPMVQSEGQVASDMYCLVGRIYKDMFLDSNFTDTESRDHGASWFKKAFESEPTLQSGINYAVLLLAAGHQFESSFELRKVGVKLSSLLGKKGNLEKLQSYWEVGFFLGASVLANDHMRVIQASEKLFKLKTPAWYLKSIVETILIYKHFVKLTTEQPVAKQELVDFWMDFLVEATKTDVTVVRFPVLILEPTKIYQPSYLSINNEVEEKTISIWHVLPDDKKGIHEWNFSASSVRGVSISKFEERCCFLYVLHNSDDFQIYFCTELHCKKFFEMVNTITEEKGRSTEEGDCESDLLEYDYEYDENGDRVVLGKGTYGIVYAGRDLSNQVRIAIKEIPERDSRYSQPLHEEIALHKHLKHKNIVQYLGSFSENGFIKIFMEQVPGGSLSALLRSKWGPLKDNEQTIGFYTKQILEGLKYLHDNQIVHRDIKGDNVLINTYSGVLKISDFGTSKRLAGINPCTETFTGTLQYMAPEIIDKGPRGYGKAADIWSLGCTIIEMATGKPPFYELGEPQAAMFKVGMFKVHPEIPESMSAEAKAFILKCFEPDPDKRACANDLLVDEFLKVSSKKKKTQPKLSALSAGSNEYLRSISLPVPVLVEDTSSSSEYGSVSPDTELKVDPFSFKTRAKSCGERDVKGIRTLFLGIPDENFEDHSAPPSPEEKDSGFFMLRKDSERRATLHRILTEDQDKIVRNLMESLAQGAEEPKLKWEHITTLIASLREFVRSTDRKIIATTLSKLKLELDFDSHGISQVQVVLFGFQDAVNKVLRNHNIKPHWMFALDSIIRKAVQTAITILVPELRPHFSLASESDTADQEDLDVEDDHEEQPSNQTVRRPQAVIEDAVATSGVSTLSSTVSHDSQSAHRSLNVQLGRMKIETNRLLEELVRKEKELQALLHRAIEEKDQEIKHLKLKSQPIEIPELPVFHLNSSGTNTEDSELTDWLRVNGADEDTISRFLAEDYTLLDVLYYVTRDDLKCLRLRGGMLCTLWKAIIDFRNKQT
# protocol summary: MAP3K5 (ASK1) binders by thermal shift, biophysical, DSF, SYPRO orange, recombinant protein (AID 515)
# condition info: at 10 µM, buffer 10 mM HEPES, pH 7.5, NaCl 150 mM, stronger effect = higher value
recorded endpoint: Tm shift

{"compound": "Cc1c2ccncc2c(C)c2c1[nH]c1ccccc12", "recorded endpoint": "Tm shift", "value observed": "6.3 Celsius"}
{"compound": "Nc1nc(Nc2ccc(S(N)(=O)=O)cc2)nn1C(=S)Nc1c(F)cccc1F", "recorded endpoint": "Tm shift", "value observed": "16.9 Celsius"}
{"compound": "O=C(Nc1ccc(N2CCOCC2)cc1)Nc1ccc(Cl)c(Cl)c1", "recorded endpoint": "Tm shift", "value observed": "5.7 Celsius"}
{"compound": "Cn1cc(/C=C2\\C(=O)Nc3ccc(S(N)(=O)=O)cc32)c2ccccc21", "recorded endpoint": "Tm shift", "value observed": "10 Celsius"}
{"compound": "NC1=N/C(=C2/CCNC(=O)c3[nH]c(Br)cc32)C(=O)N1", "recorded endpoint": "Tm shift", "value observed": "8.7 Celsius"}
{"compound": "O=Nc1c(-c2c(O)[nH]c3ccc(S(O)(O)O)cc23)[nH]c2ccccc12", "recorded endpoint": "Tm shift", "value observed": "4.04 Celsius"}
{"compound": "OCC(O)CCO/N=C1/C(c2c(O)[nH]c3ccccc23)=Nc2ccccc21 (stereo not drawn)", "recorded endpoint": "Tm shift", "value observed": "5.6 Celsius"}
{"compound": "O=C(c1ccc(Nc2nccc(-c3cc4ccccc4s3)n2)cc1)N1CCC(N2CCCC2)CC1", "recorded endpoint": "Tm shift", "value observed": "5.1 Celsius"}
{"compound": "COc1cccc(N=Cc2c(O)[nH]c3ccccc23)c1", "recorded endpoint": "Tm shift", "value observed": "3.2 Celsius"}
{"compound": "O=Nc1c(-c2c(O)[nH]c3ccccc23)[nH]c2ccccc12", "recorded endpoint": "Tm shift", "value observed": "6.1 Celsius"}
{"compound": "O=c1[nH]cnc2scc(-c3cccs3)c12", "recorded endpoint": "Tm shift", "value observed": "3.7 Celsius"}
{"compound": "O=Nc1c(-c2c(O)[nH]c3ccc(I)cc23)[nH]c2ccccc12", "recorded endpoint": "Tm shift", "value observed": "5.72 Celsius"}
{"compound": "CC1N=C2SC=CN2C(=O)C1CCN1CCC(=C(c2ccccc2)c2ccc(F)cc2)CC1 (stereo not drawn)", "recorded endpoint": "Tm shift", "value observed": "4.8 Celsius"}
{"compound": "CCOc1c(Br)ccc2c1sc1nc[nH]c(=O)c12", "recorded endpoint": "Tm shift", "value observed": "3.9 Celsius"}
{"compound": "N#Cc1ccc(-c2cnc3ccc(NC4CCOCC4)nn23)cc1", "recorded endpoint": "Tm shift", "value observed": "3.5 Celsius"}
{"compound": "O=c1c(O)c(-c2ccc(O)c(O)c2)oc2cc(O)cc(O)c12", "recorded endpoint": "Tm shift", "value observed": "3.7 Celsius"}
{"compound": "Cc1ccc2c(c1)=C(c1[nH]c(=S)[nH]c1O)C(=O)N=2", "recorded endpoint": "Tm shift", "value observed": "4.5 Celsius"}
{"compound": "O=C1Nc2ccccc2/C1=C\\c1cnc[nH]1", "recorded endpoint": "Tm shift", "value observed": "4.76 Celsius"}

src = PubChem BioAssay AID515
